B1: TRIM39 (parent)
chain: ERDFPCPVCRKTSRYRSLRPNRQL

Variants of: B1
Measurement protocol: protein stability index of a GFP-peptide fusion (GPS, HEK-293T) (PSI 1-6); higher = more stable;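 note: lentivirally expressed fusions sorted by FACS into six bins by GFP to DsRed ratio, PSI derived from sequencing read proportions per bin multiplied by bin number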
Test settings: c terminus: a fixed tail appended
Assign 1 (yes) to entries whose protein stability index meets or exceeds 2; assign 0 (no) to the rest.

Here's what some known entries look like.
Quick check: does S13N have protein stability index greater than or equal to 2?
1 (yes)

Quick check: does V8H have protein stability index greater than or equal to 2?
1 (yes)

Quick check: does R10P have protein stability index greater than or equal to 2?
1 (yes)

Quick check: does P5G have protein stability index greater than or equal to 2?
0 (no)

Quick check: does S13F have protein stability index greater than or equal to 2?
1 (yes)

---
Quick check: does R16M have protein stability index greater than or equal to 2?
0 (no)

Quick check: does P20F have protein stability index greater than or equal to 2?
1 (yes)

Quick check: does T12P have protein stability index greater than or equal to 2?
0 (no)

Ref: the supplement of paper PMC10567573
